# study-target: Mig (Homo sapiens, UniProt Q07325)
# Construct: purchased 300-26
# Sequence (Q07325 23-125): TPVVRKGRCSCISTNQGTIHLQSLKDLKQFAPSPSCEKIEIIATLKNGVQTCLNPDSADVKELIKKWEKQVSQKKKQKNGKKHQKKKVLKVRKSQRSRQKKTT
# test-details: Micro-array analysis of chemokine binding peptides: Mig
# study-conditions: limit = start of the upper 75% of that peptide's response range
recorded-metric: binding to Mig with relatively high affinity (Relative Fluorescence Units)

Consider the following illustrative entries.
WVFGVHFCK [Ph-p8.77]: > 15,000 RFU
WVFGHGMCK [Ph-p25]: > 15,000 RFU

Now for the substance whose binding to Mig with relatively high affinity (Relative Fluorescence Units) we want.
# query: binding to Mig with relatively high affinity (Relative Fluorescence Units) of entry LFGNDCE [CBP5] > 2,500 RFU
